system: MCC-13; experiment: qHTS assay to identify novel small-molecules to repurpose for Merkel cell carcinoma treatment (AID 1296009); conditions: MCC and control cell lines, CellTiter-Glo viability, 72 h; series mostly up to 46 µM; further: nearly all actives have a fitted effect of over 60% in size
Records with an inconclusive call do not appear. Active and inactive are the calls of the source. The call rests on the fitted dose curve; in most records, active means well fitted inhibition curve with a large enough effect; inconclusive means small, poorly fitted or top-dose-only effect; inactive means flat fitted curve, though single readings scatter.
outcome.measure: activity change, negative = cytotoxicity

Would you please look over these solved cases?
>  <compound.string>
C[C@@H](O)[C@H]1C(=O)N2C(C(=O)O)=C(SCCN=CN)C[C@H]12

>  <result>
inactive

$$$$
>  <compound.string>
CN=C(NC#N)NCCSCc1nc[nH]c1C

>  <result>
inactive

$$$$
>  <compound.string>
CCCCOCCOCCOCc1cc2c(cc1CCC)OCO2

>  <result>
inactive

$$$$
>  <compound.string>
CN(C)[C@@H]1C(=O)C(C(N)=O)=C(O)[C@@]2(O)C(=O)C3=C(O)c4c(O)ccc(Cl)c4[C@@H](O)[C@H]3C[C@@H]12

>  <result>
inactive

$$$$
>  <compound.string>
O=C(O)CN(CCN(CC(=O)O)CC(=O)O)CCN(CC(=O)O)CC(=O)O

>  <result>
inactive

$$$$

Give its activity change, negative = cytotoxicity value. Item: "COC(=O)[C@H]1[C@H]2C[C@@H]3c4[nH]c5cc(OC)ccc5c4CCN3C[C@H]2C[C@@H](OC(=O)c2cc(OC)c(OC)c(OC)c2)[C@@H]1OC"
inactive

Value lookup for activity change, negative = cytotoxicity; key = "CO[C@@]1(NC(=O)CSCC#N)C(=O)N2C(C(=O)O)=C(CSc3nnnn3C)CS[C@@H]21"
inactive

For the molecule shown here, "C[N+](C)(C)CCOC(N)=O" , give the reported activity change, negative = cytotoxicity.
inactive

Using the record for "CC1=C(C)C(=O)C(CCCCC#CCCCC#CCO)=C(C)C1=O" , report its activity change, negative = cytotoxicity.
inactive

Endpoint output: activity change, negative = cytotoxicity of "CCN1CCC[C@H]1CNC(=O)c1c(O)c(Cl)cc(Cl)c1OC" . Value?
inactive
